Target: Prostaglandin E synthase (Homo sapiens)
Sequence (O14684 whole entry): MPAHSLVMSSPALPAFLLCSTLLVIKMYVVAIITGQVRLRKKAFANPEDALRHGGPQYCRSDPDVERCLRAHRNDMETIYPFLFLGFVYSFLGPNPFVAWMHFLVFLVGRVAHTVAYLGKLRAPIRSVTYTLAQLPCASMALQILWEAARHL
Assay: Displacement of [3H]PGH2 from human recombinant PGES1 expressed in CHOK1 cells
Format: cell-based, CHO-K1
Reported pIC50 values are given for each entry in this list.
API: returns pIC50 as number; meaning -log10 of concentration in mol/L.

Solved entries (count: 5):
CC(=O)c1ccc2c(c1)c1cc(C(C)=O)ccc1c1[nH]c(-c3c(F)cccc3Cl)nc21 : 6.91
CC(C)(O)Cc1ccc2c(c1)c1cc(OCC3CC3)ccc1c1nc(-c3c(C#N)cccc3C#N)[nH]c21 : 8.52
CC(C)COc1ccc2c(c1)c1cc(CC(C)(C)O)ccc1c1nc(-c3c(C#N)cccc3C#N)[nH]c21 : 8.52
CCc1ccc2c(c1)c1cc(C#CC(C)(C)O)ccc1c1[nH]c(-c3c(C#N)cccc3C#N)nc21 : 9.00
CC(C)(O)Cc1ccc2c(c1)c1cc(OCCC3CC3)ccc1c1nc(-c3c(C#N)cccc3C#N)[nH]c21 : 9.05

Query the reported pIC50 for Prostaglandin E synthase (Homo sapiens); item: `CC(C)(O)Cc1ccc2c(c1)c1cc(Cl)ccc1c1nc(-c3c(C#N)cccc3C#N)[nH]c21`
8.70

Query the reported pIC50 for Prostaglandin E synthase (Homo sapiens); item: `CC(C)(O)Cc1ccc2c(c1)c1cc(OCCCC(F)(F)F)ccc1c1nc(-c3c(C#N)cccc3C#N)[nH]c21`
9.00

Query the reported pIC50 for Prostaglandin E synthase (Homo sapiens); item: `CC(C)(O)C#Cc1ccc2c(c1)c1cc(C#CC3CC3)ccc1c1nc(-c3c(C#N)cccc3C#N)[nH]c21`
9.00

====

Test: Oral bioavailability in rat at 20 mg/kg administered as single dose
Type: ADME, organism-based
Details: in vivo
# binarize bioavailability: threshold 70% inclusive, high side yes (1), low side no (0)

Recorded results for 3 compounds are shown here.
CC(C)COc1ccc2c(c1)c1cc(CC(C)(C)O)ccc1c1nc(-c3c(C#N)cccc3C#N)[nH]c21 : no (0)
CC(C)CCOc1ccc2c(c1)c1cc(CC(C)(C)O)ccc1c1[nH]c(-c3c(C#N)cccc3C#N)nc21 : no (0)
CC(C)(O)Cc1ccc2c(c1)c1cc(OCC3CC3)ccc1c1nc(-c3c(C#N)cccc3C#N)[nH]c21 : no (0)

Is it the case that `CC(C)(O)Cc1ccc2c(c1)c1cc(OCCCC(F)(F)F)ccc1c1nc(-c3c(C#N)cccc3C#N)[nH]c21` has bioavailability reaching or exceeding 70%?
yes (1)

Is it the case that `CC(C)(O)Cc1ccc2c(c1)c1cc(OCCC3CC3)ccc1c1nc(-c3c(C#N)cccc3C#N)[nH]c21` has bioavailability reaching or exceeding 70%?
yes (1)

====

Test: Half life in monkey
Assay type: ADME, organism-based, Macaca mulatta
Details: rhesus monkey, in vivo
endpoint.label: half-life (min)
Give just the number in min; leave the unit off.

What half-life value was documented for this molecule, `N#Cc1cccc(C#N)c1-c1nc2c3ccc(Cl)cc3c3ccccc3c2[nH]1` ?
78
